// data source = patent US9040547B2

target: EGFR wildtype, endogenous (Homo sapiens, UniProt P00533); construct: A549 (EGFR wildtype, endogenous); test: pEGFR Y1068 ELISA assay, A549 cells; conditions: full serum media, stimulated 10 min with EGF (40 ng/mL), read-out: pEGFRY1068 ELISAA549 IC50;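 further: sandwich ELISA of phospho-EGFR Tyr1068 in cell lysates, cells exposed to compound for 2 h before EGF stimulation, 11-point threefold dilution series run in duplicate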
Sequence (P00533 25-1210): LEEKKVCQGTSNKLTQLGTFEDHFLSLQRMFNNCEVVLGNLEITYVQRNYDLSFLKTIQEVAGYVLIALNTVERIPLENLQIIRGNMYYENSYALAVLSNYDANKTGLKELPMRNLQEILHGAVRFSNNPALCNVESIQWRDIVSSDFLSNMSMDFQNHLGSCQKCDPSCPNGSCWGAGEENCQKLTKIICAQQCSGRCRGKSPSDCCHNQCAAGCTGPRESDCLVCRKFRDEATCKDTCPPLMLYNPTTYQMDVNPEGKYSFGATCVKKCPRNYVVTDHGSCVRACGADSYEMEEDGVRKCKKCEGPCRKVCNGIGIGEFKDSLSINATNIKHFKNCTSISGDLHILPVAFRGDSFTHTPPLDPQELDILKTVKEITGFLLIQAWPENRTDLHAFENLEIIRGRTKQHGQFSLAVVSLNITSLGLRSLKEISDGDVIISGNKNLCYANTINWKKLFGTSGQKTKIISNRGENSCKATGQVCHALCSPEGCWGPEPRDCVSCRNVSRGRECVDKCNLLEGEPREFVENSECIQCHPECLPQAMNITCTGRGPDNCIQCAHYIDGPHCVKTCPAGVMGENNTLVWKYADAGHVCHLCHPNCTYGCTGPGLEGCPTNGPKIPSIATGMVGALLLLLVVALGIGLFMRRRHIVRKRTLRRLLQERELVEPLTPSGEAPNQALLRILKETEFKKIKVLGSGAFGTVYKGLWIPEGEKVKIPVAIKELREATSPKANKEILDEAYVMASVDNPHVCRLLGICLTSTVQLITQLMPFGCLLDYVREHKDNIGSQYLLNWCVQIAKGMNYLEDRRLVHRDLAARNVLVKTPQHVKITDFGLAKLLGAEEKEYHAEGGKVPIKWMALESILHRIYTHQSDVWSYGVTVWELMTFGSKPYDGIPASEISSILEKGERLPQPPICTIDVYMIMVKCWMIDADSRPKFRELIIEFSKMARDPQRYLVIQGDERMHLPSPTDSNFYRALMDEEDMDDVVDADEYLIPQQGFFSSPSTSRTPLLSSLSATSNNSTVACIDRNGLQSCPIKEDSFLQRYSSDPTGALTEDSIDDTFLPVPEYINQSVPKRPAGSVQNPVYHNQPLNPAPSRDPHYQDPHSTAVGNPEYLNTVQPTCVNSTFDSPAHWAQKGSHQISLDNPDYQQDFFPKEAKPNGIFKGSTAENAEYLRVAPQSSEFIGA
Assay metric: IC50

Sample answers from the record:
- Compound: "C=CC(=O)N1CCO[C@H](COc2nc(Nc3cnn(C)c3)nc3[nH]ccc23)C1"
  Experimental system: "EGFR wildtype, endogenous (Homo sapiens, UniProt P00533)"
  IC50: "> 10 µM"
- Compound: "C=CC(=O)Nc1cccc(Oc2nc(Nc3ccn(CC)n3)nc3[nH]ccc23)c1"
  Experimental system: "EGFR wildtype, endogenous (Homo sapiens, UniProt P00533)"
  IC50: "> 10 µM"
- Compound: "C=CC(=O)N1C[C@H](COc2nc(Nc3cnn(C)c3)nc3[nH]cc(-c4ccccn4)c23)[C@@H](OC)C1"
  Experimental system: "EGFR wildtype, endogenous (Homo sapiens, UniProt P00533)"
  IC50: "> 10 µM"

Any idea what its IC50 is? The compound is C=CC(=O)N1C[C@@H](CC)[C@H](COc2nc(Nc3cnn(C)c3)nc3[nH]ccc23)C1 (single isomer, unassigned)
> 10 µM
